Parameter: binding ratio to unstained cells. Scope: all listed entries.
target-desc: T1, full-length human FGFR1c on HEK293/hFGFR1c/SRE-luc cells (human, UniProt P11362 22-822)
T1 construct: amino acids 1-733 of NP_075593
T1 sequence (P11362 other isoform, or with tags, fused parts or gaps limits assumed): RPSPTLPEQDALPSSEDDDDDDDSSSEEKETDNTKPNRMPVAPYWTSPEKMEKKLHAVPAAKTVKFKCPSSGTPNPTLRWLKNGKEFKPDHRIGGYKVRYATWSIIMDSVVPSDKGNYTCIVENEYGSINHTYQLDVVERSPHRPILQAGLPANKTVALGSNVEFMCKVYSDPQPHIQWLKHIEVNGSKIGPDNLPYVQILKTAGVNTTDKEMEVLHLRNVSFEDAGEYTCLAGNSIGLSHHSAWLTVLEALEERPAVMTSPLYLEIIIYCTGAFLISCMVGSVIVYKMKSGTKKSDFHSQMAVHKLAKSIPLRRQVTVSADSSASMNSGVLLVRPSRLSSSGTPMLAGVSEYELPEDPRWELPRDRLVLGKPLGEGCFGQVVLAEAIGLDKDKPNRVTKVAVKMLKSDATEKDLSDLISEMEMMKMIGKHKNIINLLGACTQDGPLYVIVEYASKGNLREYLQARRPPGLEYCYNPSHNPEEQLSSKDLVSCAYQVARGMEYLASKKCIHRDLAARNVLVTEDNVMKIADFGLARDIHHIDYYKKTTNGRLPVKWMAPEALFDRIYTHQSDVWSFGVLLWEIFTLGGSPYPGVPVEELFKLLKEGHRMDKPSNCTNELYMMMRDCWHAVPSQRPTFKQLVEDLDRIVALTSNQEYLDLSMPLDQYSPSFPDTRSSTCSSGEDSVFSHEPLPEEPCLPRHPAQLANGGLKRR
run-description: FACS on stable HEK293 cells
endpoint-name: binding ratio to unstained cells (fold)

{"binder": "H2aM8832N (antibody, V domains shown, mouse IgG2 Fc (H2aM prefix)) VH: QVQLVESGGGVVQPGRSLRLSCAASGFTFSRYGMHWVRQAPGKGLEWVAVIWYDGTNKYYEDSLKGRFTISRDNSKNTLYLQMNSLRAEDSAVYYCARDQGKYIDYWGQGTLVTVSS VL: AIQMTQSPSSLSASVGDRVTITCRTSQDIRNDLGWYQQKPGKVPNLLIYAASTLQSGVPSRFSGSGSGTDFTLTISSLQPEDFATYYCLQDYNYPFTFGPGTKVDIK", "unit-label": "fold", "reported-result": 6}
{"binder": "H4H8881P (antibody, V domains shown, human IgG4 Fc (H4H prefix)) VH: QVQLVQSGAEVKKPGASVKVSCKASGYTFTSYVIHWVRQAPGQRLEWMGWSNAANGDTKYSQEFQDRVTFTRDTSASTAYMELSSLRSEDMAVYYCARWNWNYGAFDIWGQGTMVTVSS VL: DIQMTQSPSSLSASVGDRVTITCQASQDINNYLHWYQQKSGKAPNLLIYDASILETGVPSRFSGSGSGTDFTFTISSLQPEDIATYYCQQYDNLPYTFGQGTKLEIK", "unit-label": "fold", "reported-result": 2}
{"binder": "H4H8878P (antibody, V domains shown, human IgG4 Fc (H4H prefix)) VH: QVQLVESGGGVVQPGRSLRLSCAASGFTLNTYGMHWIRQTPGKGLEWVSLISYDETKEYYVDSVKGRFTISRDNSKNTLYLQMNSVRVEDTAVYYCAKPLTGSTDYYYGLDVWGQGTTVTVSS VL: DIQMTQSPSYVSASVGDRVIITCRASQDISSWLAWYQQKPGKAPKLLIYVTSSLESGVPSRFSGSGSGTDFTLTISGLQPEDFATYYCQQVKSFPPTFGPGTKVDIK", "unit-label": "fold", "reported-result": 2}
{"binder": "H1H8898P (antibody, V domains shown, H1H Fc prefix (human Fc)) VH: QVQLVESGGGLVKPGGSLRLSCAASGFIFSDYYMSWIRQAPGKGLDWISYISPSGSTIYYADSVKGRFTISRDNAKNSLYLQMNSLRADDTAVYYCARTGIQLWSVYFDYWGQGTLVTVSS VL: EIVMTQSPATLSVSPGERATLSCRASQSVGSNLAWYQQKPGQAPRLLIYGASTRANGIPARFSGSGSGTEFTLTISGLQSEDFAVYYCQQYNNWPTFGQGTKLEIK", "unit-label": "fold", "reported-result": 1}

// data source = patent US20170174769A1
